System: Haemophilus influenzae
ASSAY_PROCEDURE: Antibacterial activity against Haemophilus influenzae IID983 by agar dilution method
Format: functional
RECORDED_ENDPOINT: log10(MIC) (log10 of the value in µg/mL)
Answers are given as log10 of MIC in µg/mL.

SMILES_ENTRY	RECORDED_ENDPOINT	VALUE_MEASURED
N#C[C@]1(c2ccc(-c3ccc(N4C[C@H](Cn5ccnn5)OC4=O)cc3F)cn2)[C@@H]2CNC[C@@H]21	log10(MIC)	0.30

Given `N#C[C@]1(c2ccc(-c3ccc(N4C[C@H](Cn5ccnn5)OC4=O)cc3)cn2)[C@@H]2COC[C@@H]21` , respond with its log10(MIC).
0.60

Name the recorded log10(MIC) of the item `N#C[C@]1(c2ccc(-c3ccc(N4C[C@H](Cn5ccnn5)OC4=O)cc3F)cc2F)[C@@H]2CNC[C@@H]21` in your answer.
1.20
